Ref: patent US11578055B2

# Experiment: In Vitro Microsome Stability Assay (mouse)
# Format: in vitro ADME
# Conditions used: mouse, 30 min, NADPH
Structures can show the parent of a compound that is named as a salt.
Assay readout: Liver Microsome Stability-% Left after 30 min w/ NADPH (%) Mouse
Write your answer as a measured quantity: the number, then the unit.

Look over these answered cases.
CN(C)c1ccc(S(=O)(=O)N2CCCN(CC3CCCCC3)CCCN(S(=O)(=O)N3CCC(c4ccccc4)CC3)CC3(CC3)C2)cc1 : 32.4%
C[C@H]1CN(S(=O)(=O)c2ccc(N(C)C)cc2)CCCN(CC2CCCCC2)CCCN(S(=O)(=O)N2CCC(c3ccccc3)CC2)C1 : 37.3%
Cc1ccc(S(=O)(=O)N2CCCN(CC3CCCCC3)CCCN(S(=O)(=O)c3ccc(N(C)C)cc3)CC3(CC3)C2)cc1 [A11, hydrochloride] : 0.18%
C=C1CN(S(=O)(=O)c2ccc(N(C)C)cc2)CCCN(CC2CCCCC2)CCCN(S(=O)(=O)N2CCc3c(Cl)cccc3C2)C1 : 34.6%
CN(C)c1ccc(S(=O)(=O)N2CCCN(CC3CCCCC3)CCCN(S(=O)(=O)N3CCC(c4ccccc4)CC3)CCC2)cc1 : 0.79%

Dear colleague, could you please provide Liver Microsome Stability-% Left after 30 min w/ NADPH (%) Mouse for the molecules listed below?
1. C=C1CN(S(=O)(=O)c2ccc(N(C)C)cc2)CCCN(CC2CCCCC2)CCCN(S(=O)(=O)N2CC=C(c3ccc(Cl)cc3)CC2)C1
2. C=C1CN(S(=O)(=O)c2ccc(N(C)C)cc2)CCCN(CC2CCCCC2)CCCN(S(=O)(=O)N2CCc3cc(C#N)ccc3C2)C1

["53.7%", "3.14%"]
